Experiment: AUC in cynomolgus monkey at 0.2 mg/kg, iv
Type: ADME, organism-based, Macaca fascicularis
Set-up: dose 0.2 mg/kg
Details: in vivo
test.readout: AUC

Form: molecule = `COC[C@](CO)(OC[C@H]1O[C@@H](n2ncc3c(NC4CCCC4)nc(Cl)nc32)[C@H](O)[C@@H]1O)P(=O)(O)O` ; AUC = 7.72 µM·h

====

Assay: Volume of distribution at steady state in dog at 0.2 mg/kg, iv
Type: ADME, organism-based, Canis lupus familiaris
Conditions: in vivo, read-out: Vdss
test.readout: Vd

Form: molecule = `COC[C@](CO)(OC[C@H]1O[C@@H](n2ncc3c(NC4CCCC4)nc(Cl)nc32)[C@H](O)[C@@H]1O)P(=O)(O)O` ; Vd = 0.29 L/kg

All values here come from ChEMBL document CHEMBL4725392.
